All figures here come from ChEMBL document CHEMBL5518206.

assay: Half life in NMRI female mouse at 30 mg/kg, iv by HPLC analysis; format: ADME, organism-based; conditions: in vivo
RECORDED_ENDPOINT: half-life

Record summary for C=C[C@]1(C)C[C@@H](OC(=O)Cn2cc(-c3ccc(Cn4cnc5c(N6CCNCC6)ncnc54)nc3)nn2)[C@]2(C)[C@H](C)CC[C@]3(CCC(=O)[C@H]32)[C@@H](C)[C@@H]1O : reported half-life = 52.8 min

###

experiment: Tmax in pig urine at 10 mg/kg, po measured upto 240 mins by LC-MS/MS analysis; type: ADME, organism-based, Sus scrofa
RECORDED_ENDPOINT: Tmax

Record summary for C=C[C@]1(C)C[C@@H](OC(=O)Cn2cc(-c3ccc(Cn4cnc5c(N6CCNCC6)ncnc54)nc3)nn2)[C@]2(C)[C@H](C)CC[C@]3(CCC(=O)[C@H]32)[C@@H](C)[C@@H]1O : reported Tmax = 1 h
